PROCEDURE TEXT: Plasma level by the renin inhibition assay from samples taken at 30 minutes from systemic circulation by administering 10 mg/kg intraduodenally to the rat
Entries annotated with measured concentration at 0.5 h
Provide a numeric answer, followed by its unit.

CC(C)C[C@H](O)[C@H](O)[C@H](CC1CCCCC1)NC(=O)[C@H](Cc1ccn[nH]1)NC(=O)[C@@H](CC(=O)N1CCN(C)CC1)Cc1ccccc1	22 ng/mL
CC(C)C[C@H](O)[C@H](O)[C@H](CC1CCCCC1)NC(=O)[C@H](Cc1cscn1)NC(=O)[C@H](Cc1ccccc1)N1CCOCC1	890 ng/mL
CC(C)C[C@H](O)[C@H](O)[C@H](CC1CCCCC1)NC(=O)[C@H](Cc1c[nH]cn1)NC(=O)[C@@H](CC(=O)N1CCN(C)CC1)Cc1ccccc1	40 ng/mL
CON(C)C[C@H](NC(=O)[C@@H](CC(=O)N1CCOCC1)Cc1ccccc1)C(=O)N[C@@H](CC1CCCCC1)[C@@H](O)[C@@H](O)CC(C)C	170 ng/mL
COc1ccc(C[C@H](NC(=O)CC(C)(C)N)C(=O)N[C@@H](Cc2cscn2)C(=O)N[C@@H](CC2CCCCC2)[C@@H](O)[C@@H](O)CC(C)C)cc1	13 ng/mL
CCN1C[C@@H]([C@H](O)[C@H](CC2CCCCC2)NC(=O)[C@H](Cc2cscn2)NC(=O)[C@@H](CC(=O)N2CCOCC2)Cc2ccccc2)OC1=O	300 ng/mL

For this compound ( CCN1C[C@@H]([C@H](O)[C@H](CC2CCCCC2)NC(=O)[C@H](Cc2cc[nH]n2)NC(=O)[C@@H](CC(=O)N2CCOCC2)Cc2ccccc2)OC1=O ), measured concentration at 0.5 h is 7 ng/mL

The compound listed as CC(C)C[C@H](NC(=O)[C@@H](CC(=O)N1CCN(C)CC1)Cc1ccccc1)C(=O)N[C@@H](CC1CCCCC1)[C@@H](O)[C@@H](O)CC(C)C shows concentration at 0.5 h equal to 620 ng/mL

Entry under test: CC(C)C[C@H](O)[C@H](O)[C@H](CC1CCCCC1)NC(=O)[C@H](Cc1cscn1)NC(=O)[C@@H](CC(=O)CN1CCOCC1)Cc1ccccc1 . Its concentration at 0.5 h was 380 ng/mL

// concentration at 0.5 h lookup, compound = CC(C)C[C@H](O)[C@H](O)[C@H](CC1CCCCC1)NC(=O)[C@H](Cn1cccn1)NC(=O)[C@@H](CC(=O)N1CCN(C)CC1)Cc1ccccc1 , result: 140 ng/mL

Record COc1ccc(C[C@H](NC(=O)C2CCN(C)CC2)C(=O)N[C@@H](Cc2cscn2)C(=O)N[C@@H](CC2CCCCC2)[C@@H](O)[C@@H](O)CC(C)C)cc1 . Reported concentration at 0.5 h: 90 ng/mL

----------
PROCEDURE TEXT: Partition coefficient (logD7.4)
ASSAY SETUP: octanol/water, pH 7.4
Below: a set of entries, each annotated with reported logD.
Lab note: jot the number down without any unit.

CC(C)C[C@H](O)[C@H](O)[C@H](CC1CCCCC1)NC(=O)[C@H](CN=[N+]=[N-])NC(=O)[C@@H](CC(=O)N1CCOCC1)Cc1ccccc1	4.1
CC(C)C[C@H](O)[C@H](O)[C@H](CC1CCCCC1)NC(=O)[C@H](Cc1c[nH]cn1)NC(=O)[C@@H](CC(=O)N1CCN(C)CC1)Cc1ccccc1	1.66
CC(C)C[C@H](O)[C@H](O)[C@H](CC1CCCCC1)NC(=O)[C@H](Cn1ccnc1)NC(=O)[C@@H](CC(=O)N1CCOCC1)Cc1ccccc1	3.79
CC(C)C[C@H](O)[C@H](O)[C@H](CC1CCCCC1)NC(=O)[C@H](Cc1cn(C)cn1)NC(=O)[C@@H](CC(=O)N1CCOCC1)Cc1ccccc1	3.71
CC(C)C[C@H](O)[C@H](O)[C@H](CC1CCCCC1)NC(=O)[C@H](Cc1c[nH]cn1)NC(=O)[C@@H](CC(=O)N1CCOCC1)Cc1ccccc1	3.51
CCN1C[C@@H]([C@H](O)[C@H](CC2CCCCC2)NC(=O)[C@H](Cc2cc[nH]n2)NC(=O)[C@@H](CC(=O)N2CCOCC2)Cc2ccccc2)OC1=O	2.49

The measured logD associated with CC(C)C[C@H](O)[C@H](O)[C@H](CC1CCCCC1)NC(=O)[C@H](Cn1cccn1)NC(=O)[C@@H](CC(=O)N1CCN(C)CC1)Cc1ccccc1 reads 4.39
